assay: Chemical stability test (residual rate by HPLC after storage); type: physicochemical; conditions: Condition 2: 80° C.: 1 week: unpulverized, vs sample stored at −20° C.
readout-name: Residual rate (%)

cpd-smiles: C[C@H]1Cc2cc(OCCCC(F)(F)F)ccc2C=C1CN1CC(C(=O)O)C1.C[C@H]1Cc2cc(OCCCC(F)(F)F)ccc2C=C1CN1CC(C(=O)O)C1.O=C(O)CCCCC(=O)O
recorded-measurement: 95.8
//
cpd-smiles: C[C@H]1Cc2cc(OCCCC(F)(F)F)ccc2C=C1CN1CC(C(=O)O)C1.C[C@H]1Cc2cc(OCCCC(F)(F)F)ccc2C=C1CN1CC(C(=O)O)C1.O=C(O)CCC(=O)O
recorded-measurement: 99.1
//
cpd-smiles: C[C@H]1Cc2cc(OCCCC(F)(F)F)ccc2C=C1CN1CC(C(=O)O)C1.N[C@@H](Cc1c[nH]c2ccccc12)C(=O)O
recorded-measurement: 99.6
//
cpd-smiles: C[C@H]1Cc2cc(OCCCC(F)(F)F)ccc2C=C1CN1CC(C(=O)O)C1.O=C(O)c1ccc(O)cc1
recorded-measurement: 99.6

* * *

Experiment: Chemical stability test (residual rate by HPLC after storage)
Format: physicochemical
Settings: Condition 1: 60° C.: 1 month: pulverized, vs sample stored at −20° C.
Description: Stability of the salts and/or crystal forms of the present invention was studied under the storage conditions of Condition 1 or Condition 2. After storage, the residual rate (%) of the stored sample under each condition was calculated by HPLC based on the area percentage of the sample stored at −20° C. • Condition 1 60° C.: 1 month: pulverized • Condition 2 80° C.: 1 week: unpulverized Comparison object of each sample was stored at −20° C.
compounds and their reported Residual rate (%)
readout-name: Residual rate (%)

cpd-smiles: C[C@H]1Cc2cc(OCCCC(F)(F)F)ccc2C=C1CN1CC(C(=O)O)C1
readout-name: Residual rate (%)
recorded-measurement: 99.1
--
cpd-smiles: C[C@H]1Cc2cc(OCCCC(F)(F)F)ccc2C=C1CN1CC(C(=O)O)C1.O.O=C(O)c1ccc(O)cc1
readout-name: Residual rate (%)
recorded-measurement: 95.3
--
cpd-smiles: C[C@H]1Cc2cc(OCCCC(F)(F)F)ccc2C=C1CN1CC(C(=O)O)C1.O=C(O)c1ccccc1
readout-name: Residual rate (%)
recorded-measurement: 97.9
--
cpd-smiles: C[C@H]1Cc2cc(OCCCC(F)(F)F)ccc2C=C1CN1CC(C(=O)O)C1.O=C(O)c1ccc(O)cc1
readout-name: Residual rate (%)
recorded-measurement: 99.4

* * *

Each record here notes measured Residual rate (%).
assay: Chemical stability test (residual rate by HPLC after storage); format: physicochemical; details: Condition 1: 60° C.: 1 month: pulverized, vs sample stored at −20° C.

cpd-smiles: C[C@H]1Cc2cc(OCCCC(F)(F)F)ccc2C=C1CN1CC(C(=O)O)C1.C[C@H]1Cc2cc(OCCCC(F)(F)F)ccc2C=C1CN1CC(C(=O)O)C1.O=S(=O)(O)O
Residual rate (%): 97.1

cpd-smiles: C[C@H]1Cc2cc(OCCCC(F)(F)F)ccc2C=C1CN1CC(C(=O)O)C1.O
Residual rate (%): 97.8

cpd-smiles: C[C@H]1Cc2cc(OCCCC(F)(F)F)ccc2C=C1CN1CC(C(=O)O)C1.N[C@@H](Cc1c[nH]c2ccccc12)C(=O)O
Residual rate (%): 99.1
